molecular target: T1, SARS‐CoV‐2 spike membrane protein of the Delta variant (B.1.617.2) (SARS-CoV-2, Delta variant B.1.617.2, strain); experiment: flow cytometry on cells; conditions: one partner purified
T1 construct: also called Delta spike protein
MEASUREMENT_LABEL: MdFI
Give bare numbers.

Answered examples (3):
>>> measured_number("BMS‐986414 (C135) (antibody, V domains shown) VH: QVQLVESGGGVVQPGRSLRLSCAASGFTFSSYAMHWVRQAPGKGLEWVAVIPFDGRNKYYADSVTGRFTISRDNSKNTLYLQMNSLRAEDTAVYYCASSSGYLFHSDYWGQGTLVTVSS VL: DIQMTQSPSTLSASVGDRVTITCRASQSISNWLAWFQQKPGKAPKLLIYEASSLESGVPSRFSGSGSGTEFTLTISSLQPDDFATYYCQQYNSYPWTFGQGTKVEIK")
666000
>>> measured_number("REGN10987 (Imdevimab) (antibody, V domains shown) VH: QVQLVESGGGVVQPGRSLRLSCAASGFTFSNYAMYWVRQAPGKGLEWVAVISYDGSNKYYADSVKGRFTISRDNSKNTLYLQMNSLRTEDTAVYYCASGSDYGDYLLVYWGQGTLVTVSS VL: QSALTQPASVSGSPGQSITISCTGTSSDVGGYNYVSWYQQHPGKAPKLMIYDVSKRPSGVSNRFSGSKSGNTASLTISGLQSEDEADYYCNSLTSISTWVFGGGTKLTVL")
471000
>>> measured_number("BMS‐986413 (C144) (antibody, V domains shown) VH: EVQLVESGGGLIQPGGSLRLSCAASGFTVSNNYMSWVRQAPGKGLEWVSVIYSGGSTYYADSVKGRFTISRDKSKNTLYLQMNRLRAEDTAVYYCAREGEVEGYNDFWSGYSRDRYYFDYWGQGTLVTVSS VL: QSALTQPASVSGSPGQSITISCTGTSSDVGGYNYVSWYQQHPGKAPKLMIYDVSNRPSGVSNRFSGSKSGNTASLTISGLQAEDEADYYCSSYTSSSTRVFGTGTKVTVL")
408000

Continue with the next binder.
## Input Fill in: MdFI of REGN10933 (Casirivimab) (antibody, V domains shown) VH: QVQLVESGGGLVKPGGSLRLSCAASGFTFSDYYMSWIRQAPGKGLEWVSYITYSGSTIYYADSVKGRFTISRDNAKSSLYLQMNSLRAEDTAVYYCARDRGTTMVPFDYWGQGTLVTVSS VL: DIQMTQSPSSLSASVGDRVTITCQASQDITNYLNWYQQKPGKAPKLLIYAASNLETGVPSRFSGSGSGTDFTFTISGLQPEDIATYYCQQYDNLPLTFGGGTKVEIK is ___
## Output 148000
